tested on: MDA-MB-231 breast; experiment: NCI-60 one-dose screen, 48 h (100 = growth as untreated, 0 = no growth, -100 = all killed); settings: 10 µM unless noted
The panel holds about 83,000 compounds, 20% with a hit somewhere; the sample as a whole holds those more often. Active and inactive are the calls of the source. The calls were made as follows: active = growth percent below 10; inactive = the rest.
Listed below: growth values for each entry.

A selection of reference data follows.
CCOC(=O)c1c(C)nn(CC(O)c2ccccc2)c1NC(=O)Nc1cccc(F)c1 (centres undefined)    93% (inactive)
C[C@@H](CO)[C@@H]1CC[C@]2(C(=O)N3CCN(C)CC3)CC[C@]3(C)[C@H](CC[C@@H]4[C@@]5(C)CC[C@H](O)C(C)(C)[C@@H]5CC[C@]43C)[C@@H]12    82.8% (inactive)
NC(=O)c1ccc(NC(=O)c2oc3ccccc3c2-c2cnn(-c3ccccc3)c2)cc1    -68% [50 µM] (active)
CCOC(=O)c1cn2ncnc(Oc3ccc(NC(=O)NC4CC4)c(F)c3)c2c1C    99.3% (inactive)
O=C(CSc1nc2ccc([N+](=O)[O-])cc2[nH]1)Nc1cccc([N+](=O)[O-])c1    73.7% (inactive)

What the record says about CCCCCCCCn1ccc2cc(NC(=O)Cn3cc(CN4CCCCCC4)nn3)ccc21 : growth is -26% (active)

Recorded result, CC1=CCC[C@@H]2C1(C)CC[C@H](C)[C@@]2(C)CC1=CC(=O)C(SC(C)(C)C)=CC1=O (some centres undefined) , growth: 78.3% (inactive)

growth reported for this compound COc1ccccc1-n1c(-c2cc(O)ccc2C)cn2c3c(=O)[nH]c(=O)n(C)c3nc12 : 41.2% (inactive)

So, COc1ccc(C2C(C#N)=C(N)Oc3c2sc2c(Br)cccc32)cc1 (centres undefined) ? Its growth was 40.5% (inactive)
